test: NCI Yeast Anticancer Drug Screen. Data for the rad50 strain (AID 155); conditions: S. cerevisiae rad50 strain growth inhibition; at 50.0 µM; active compounds read high
This is part of a sample that, as a whole, favours compounds with a hit. Of some 79,000 tested, about 15% had one in any assay. *1 amine or outer side, *2 acyl side, *3 side chain or, on linkers, in order; H or OH if unused. Where a SMILES comes first, the peptide text is derived from it. [ ]: non-standard residue; d: D form. The star is where a group is joined. X17 = CC(=O)N(C)SCC(N[*:1])C(=O)[*:2]; Fmoc = O=C(OCC1c2ccccc2-c2ccccc21)*; For = O=C*
Decide by growth inhibition: equal to or exceeding 10% means Y, less means N.

Confirm if growth inhibition reported for the compound "CCNC(=S)NC1CCCCC1" is 10% or above.
N

More entries:
Confirm if growth inhibition reported for the compound "O=C1/C(=C/c2ccccc2)CN(C(=O)Oc2ccccc2)C/C1=C\c1ccccc1" is 10% or above.
N

Confirm if growth inhibition reported for the compound "C=CCOc1ccc2cc(Br)ccc2c1" is 10% or above.
N

Confirm if growth inhibition reported for the compound CC1OC(c2cccc([N+](=O)[O-])c2)OCC1(C)C (stereo unspecified) is 10% or above.
N

Confirm if growth inhibition reported for the compound CC(=O)N(C)SCC(NC(=O)C(Cc1ccccc1)NC(=O)OCC1c2ccccc2-c2ccccc21)C(=O)NC(Cc1ccccc1)C(=O)NC(Cc1cn(C=O)c2ccccc12)C(=O)NC(CCCCNC(=O)OCC1c2ccccc2-c2ccccc21)C(=O)NC(C(=O)NC(CSN(C)C(C)=O)C(=O)NC(C(N)=O)C(C)O)C(C)O (stereo unspecified) (Fmoc-F[X17]FW(For)K(Fmoc)T[X17]T-NH2; configuration not given here) is 10% or above.
Y

Confirm if growth inhibition reported for the compound "CN(C)c1ccc(/C=C/C=C(/C#N)c2ccccc2)cc1" is 10% or above.
Y

Confirm if growth inhibition reported for the compound COc1nc(NC2OC(CO)C(O)C(O)C2O)c(/C=N/O)c(=O)n1C (stereo unspecified) is 10% or above.
N

From: PubChem BioAssay (NCI)
